- tested-target: Phospholipase A2 (Apis mellifera, UniProt B7UUK1)
- Sequence (B7UUK1 whole entry): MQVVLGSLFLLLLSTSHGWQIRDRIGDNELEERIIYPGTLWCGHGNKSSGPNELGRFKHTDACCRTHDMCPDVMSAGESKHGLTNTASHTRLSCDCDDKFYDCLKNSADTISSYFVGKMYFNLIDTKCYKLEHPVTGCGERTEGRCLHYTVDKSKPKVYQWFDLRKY
Overview of reported IC50 across a group of compounds:
Lab book: enter the figure in nM, no units written.

| compound | readout-number |
| --- | --- |
| CC1=C(CC/C(C)=C/CCC2=CC[C@H](C3=CC(=O)O[C@H]3O)O[C@H]2O)C(C)(C)CCC1 [MANOALIDE] | 40 |

Just so you know, measured IC50 for `CC1=C(CC/C(C)=C/CC/C(C=O)=C\C=C\C2=CC(=O)O[C@H]2O)C(C)(C)CCC1` came out at 280

###

- tested-target: UniProt B7UUK1
- method: Inhibition of bee venom PLA2 assessed as inactivation of enzyme at 2 ug/ml
Calls of active or inactive are those of the source. The rule behind the calls is not given here.
reported-endpoint: Activity

Examples with their reported Activity follow.
| compound | Activity |
| --- | --- |
| CC1=C[C@H]2Cc3occc3C(C)(C)[C@H]2CC1 | inactive |
| CC(=O)O[C@@H]1O[C@H]2OC(=O)[C@H](C)C3=C([C@@]4(C)CCCC(C)(C)C4)C[C@@H](OC(C)=O)[C@@H]1[C@H]32 | 60% |
| CC1=CC2C[C@]3(O)OC(=O)C=C3C(C)(C)C2CC1 (stereo partly specified) | 60% |
| CC1=CC(CC2=CC(=O)OC2O)C(C(C)C)CC1 (stereo unspecified) | 60% |
| CCCC(=O)O[C@H]1[C@@H](O)[C@@]23C(CC[C@H]4C(=O)O[C@@H](O[C@H]2O)[C@H]43)[C@@]2(C)CCCC(C)(C)[C@@H]12 (stereo partly specified) | 44% |
| CCCC(=O)O[C@H]1[C@@H](OC(C)=O)[C@@]23C(CC[C@H]4C(=O)O[C@@H](O[C@H]2O)[C@H]43)[C@@]2(C)CCCC(C)(C)[C@H]12 (stereo partly specified) | 50% |

Now for the compound whose Activity we want.
Just so you know, measured Activity for CCCC(=O)O[C@@H]1C[C@H]2C(C)(C)CCC[C@]2(C)C2CC[C@H]3C(=O)O[C@H]4O[C@@H](O)[C@]21[C@H]43 (stereo partly specified) came out at 65%

###

# Phospholipase A2 (Apis mellifera): IC50 values follow
// return numeric value only (unit: nM, not printed)

| molecule | unit-info | readout-number |
| --- | --- | --- |
| CC(=O)O[C@H]1C[C@@H]2[C@@]3(C)CCCC(C)(C)[C@@H]3CC[C@@]2(C)[C@@H]2CC=C(C=O)[C@H](C=O)[C@@]12C | nM | 70 |
| CC1=C(CC/C(C)=C/CC/C(C)=C/CCC2=CC(=O)OC2O)C(C)(C)CCC1 (stereo not drawn) [LUFFARIELLOLIDE] | nM | 230 |

Now for a further molecule.
Bench note, Phospholipase A2 (Apis mellifera): `CC1(C)CCC[C@]2(C)[C@H]3C[C@@H](O)[C@]4(C)[C@@H](C=O)C(C=O)=CC[C@H]4[C@]3(C)CC[C@@H]12` , IC50 reads 200

###

- tested-target: Phospholipase A2 (Apis mellifera) (UniProt B7UUK1)
- method: Inhibition of bee venom PLA2 assessed as inactivation of enzyme at 2 ug/ml
- Parameters: scale not given: the % may be the effect or the level left
The source made the active and inactive calls. No cut-off for these calls is given here.
reported-endpoint: Activity

| compound | tested-target | result |
| --- | --- | --- |
| C=C([C@@H]1[C@@H](OC(C)=O)O[C@@H]2OC(=O)C[C@@H]21)[C@H]1CC[C@H]2C(C)(C)CCC[C@]12C | Phospholipase A2 (Apis mellifera) (UniProt B7UUK1) | 66% |
| CC1=C[C@H]2Cc3ccoc3C(C)(C)[C@H]2CC1 | Phospholipase A2 (Apis mellifera) (UniProt B7UUK1) | inactive |
| CC1=CC2C[C@]34OC(=O)C[C@]3(O4)C(C)(C)C2CC1 (some centres undefined) | Phospholipase A2 (Apis mellifera) (UniProt B7UUK1) | inactive |
| C=C1CCCC(C)(C)[C@@H]2CC[C@@](C)([C@H]3[C@H]4CC(=O)O[C@H]4O[C@H]3O)[C@H]12 | Phospholipase A2 (Apis mellifera) (UniProt B7UUK1) | 48% |
